target: Nuclear receptor subfamily 1 group I member 2 (Homo sapiens) (UniProt O75469); experiment: Human pregnane X receptor (PXR) small molecule agonists, qHTS assay (AID 1346982); conditions: PXR-Luc HepG2, CYP3A4 luciferase reporter, 24 h; series mostly up to 92.4 µM; note: nearly all actives have a fitted effect of over 35% in size
Sequence (O75469 whole entry, looked up): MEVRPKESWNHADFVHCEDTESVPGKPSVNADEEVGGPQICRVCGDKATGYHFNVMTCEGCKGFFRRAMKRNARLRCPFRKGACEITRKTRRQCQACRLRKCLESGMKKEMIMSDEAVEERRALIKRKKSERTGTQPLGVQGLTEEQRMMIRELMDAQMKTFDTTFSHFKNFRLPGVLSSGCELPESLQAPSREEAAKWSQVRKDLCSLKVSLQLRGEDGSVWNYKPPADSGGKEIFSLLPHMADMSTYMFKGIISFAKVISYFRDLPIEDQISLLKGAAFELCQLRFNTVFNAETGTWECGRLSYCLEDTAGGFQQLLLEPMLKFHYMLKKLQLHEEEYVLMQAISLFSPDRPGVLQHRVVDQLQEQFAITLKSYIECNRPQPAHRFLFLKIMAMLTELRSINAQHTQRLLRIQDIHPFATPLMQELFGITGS
Inconclusive results are not listed. Calls of active or inactive are those of the source. Calls come from the whole dose curve; as a rule, active = well fitted activation curve with a large enough effect in the repeat runs; inconclusive = weak or mixed curves; inactive = no such curve, though single readings can be large or run the other way.
Outcomes: active, inactive

>  <molecule>
O=C(NC(O)C(Cl)(Cl)Cl)NC(O)C(Cl)(Cl)Cl (configuration not stated)

>  <class_label>
inactive

$$$$
>  <molecule>
COP(=O)(OC)O/C(C)=C/C(=O)N(C)C

>  <class_label>
inactive

$$$$
>  <molecule>
C=C(Cl)CSC(=S)N(CC)CC

>  <class_label>
inactive

$$$$
>  <molecule>
CC1=C2[C@H]3OC(=O)[C@@H](C)[C@@H]3CC[C@@]2(C)C=CC1=O

>  <class_label>
active

$$$$
>  <molecule>
CCOP(=S)(OCC)Oc1ccc(Cl)cc1Cl

>  <class_label>
inactive

$$$$
>  <molecule>
CCCCOC(C)=O

>  <class_label>
inactive

$$$$
>  <molecule>
O=c1[nH]oc2c1CCNC2

>  <class_label>
inactive

$$$$
